Target: COX-2 (Mus musculus, UniProt Q05769)
Construct: host or cells: RAW 264.7 cells, aspirin-pretreated, then induced with interferon gamma and LPS
Sequence (Q05769 18-604): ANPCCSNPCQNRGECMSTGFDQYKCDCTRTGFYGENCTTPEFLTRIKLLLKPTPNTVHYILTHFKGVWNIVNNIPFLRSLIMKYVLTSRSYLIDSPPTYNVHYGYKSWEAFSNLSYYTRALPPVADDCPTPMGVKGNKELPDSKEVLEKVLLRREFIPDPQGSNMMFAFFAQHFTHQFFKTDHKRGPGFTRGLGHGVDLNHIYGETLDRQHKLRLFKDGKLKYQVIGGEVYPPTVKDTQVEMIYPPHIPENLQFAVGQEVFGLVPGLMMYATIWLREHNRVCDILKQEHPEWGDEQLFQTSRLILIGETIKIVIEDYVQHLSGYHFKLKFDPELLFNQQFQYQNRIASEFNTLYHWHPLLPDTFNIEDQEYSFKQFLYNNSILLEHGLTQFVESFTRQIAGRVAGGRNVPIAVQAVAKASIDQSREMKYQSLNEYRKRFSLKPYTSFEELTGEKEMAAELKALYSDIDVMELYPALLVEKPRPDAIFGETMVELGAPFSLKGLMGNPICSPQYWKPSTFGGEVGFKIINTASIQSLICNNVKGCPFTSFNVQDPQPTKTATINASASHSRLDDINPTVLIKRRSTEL
Experiment: Assay for the COX-2 inhibitory activity using RAW 264.7 cell line (PGE2, interferon γ/LPS induced)
Format: cell-based
Conditions: RAW264.7; 10 nM test compound; RAW 264.7 cells; interferon γ + LPS, 18 hours; PGE2; read-out: Cyclooxygenase (COX) Inhibition (%) COX-2 (10 nM)
readoutType: inhibition at 0.01 µM (%)

Guide cases for inhibition at 0.01 µM, answers given:
{"lineNotation": "CS(=O)(=O)c1ccc(-n2nc(C(F)(F)F)nc2-c2ccncc2)cc1", "readoutType": "inhibition at 0.01 µM", "endpointUnit": "%", "endpointResult": 8.88}
{"lineNotation": "CS(=O)(=O)c1ccc(-n2nc(C(F)(F)F)nc2-c2ccc(Cl)cc2)cc1", "readoutType": "inhibition at 0.01 µM", "endpointUnit": "%", "endpointResult": 10.5}
{"lineNotation": "CS(=O)(=O)c1ccc(-n2nc(C(F)(F)F)nc2-c2cccc(C(F)(F)F)c2)cc1", "readoutType": "inhibition at 0.01 µM", "endpointUnit": "%", "endpointResult": 5.66}
{"lineNotation": "CS(=O)(=O)c1ccc(-n2nc(C(F)(F)F)nc2-c2ccc(Br)cc2)cc1", "readoutType": "inhibition at 0.01 µM", "endpointUnit": "%", "endpointResult": 16}
{"lineNotation": "CS(=O)(=O)c1ccc(-n2nc(C(F)(F)F)nc2/C=C/c2ccccc2)cc1", "readoutType": "inhibition at 0.01 µM", "endpointUnit": "%", "endpointResult": 19.2}

(1) CS(=O)(=O)c1ccc(-n2nc(C(F)(F)F)nc2-c2ccc3c(c2)OCO3)cc1
(2) CC(C)(C)c1ccc(-c2nc(C(F)(F)F)nn2-c2ccc(S(C)(=O)=O)cc2)cc1
I'd appreciate it if you could identify which of 1 and 2 has the greater inhibition at 0.01 µM. Record your answer as the label of the chosen record. 1
(1: 33.7%, 2: 6.23%)

(A) COc1ccc(-c2nc(C(F)(F)F)nn2-c2ccc(S(C)(=O)=O)cc2)cc1
(B) CS(=O)(=O)c1ccc(-n2nc(C(F)(F)F)nc2-c2ccccc2)cc1
(C) CS(=O)(=O)c1ccc(-n2nc(C(F)(F)F)nc2-c2ccc(Br)cc2)nn1
Rank order required: inhibition at 0.01 µM, descending. Output spec: a listing of the labels in the requested order. A, B, C
(A: 28.6%, B: 7.62%, C: 3.21%)
